All figures here come from patent US20070015733A1.

IC50 overview
# System: NRTI-resistant recombinant HIV-1 isolates
# experiment description: RT activity assay, multi-NRTI-resistant recombinant HIV-1 clones
# Type: cell-based
# experimental context: Human immunodeficiency virus 1, read-out: IC50 (nM), RT, recombinant clone 4755-5

- molecule: "CC(C)(C)NC(=O)[C@@H]1CN(Cc2cccnc2)CCN1C[C@@H](O)C[C@@H](Cc1ccccc1)C(=O)N[C@H]1c2ccccc2C[C@H]1O"
  IC50: "4.8 nM"
- molecule: "COC(=O)C(C)NP(=O)(OC[C@@H]1C=C[C@H](n2cc(C)c(=O)[nH]c2=O)O1)Oc1ccc(Br)cc1 (stereo partly shown)"
  IC50: "0.6 nM"
- molecule: "Nc1ccn([C@@H]2CS[C@H](CO)O2)c(=O)n1"
  IC50: "> 10000 nM"
- molecule: "Cc1cn([C@H]2C[C@H](N=[N+]=[N-])[C@@H](CO)O2)c(=O)[nH]c1=O"
  IC50: "15.4 nM"

###

# experiment description: Microculture tetrazolium assay (MTA) cytotoxicity in PBMNC
# experimental context: human, PBMC or MT-2 cells, CC50 values; data not shown

- compound: "Cc1ccnc2c1NC(=O)c1cccnc1N2C1CC1 [nevirapine]"
  CC50 at 5 days: "> 100 µM"

###

# System: zidovudine-resistant primary clinical HIV-1 isolates
# experiment description: p24 drug susceptibility assay, NRTI-/zidovudine-resistant primary clinical HIV-1 isolates in PBMC
# Type: cell-based
# experimental context: Human immunodeficiency virus 1, PBMC, isolate G890-1 (K20R, M41L, D67N, T69N, K70R, L210W, T215Y); PBMC
pIC50: −log10 of the molar value.
parameter: pIC50

- molecule: "COC(=O)C(C)NP(=O)(OC[C@@H]1C=C[C@H](n2cc(C)c(=O)[nH]c2=O)O1)Oc1ccc(Br)cc1 (some centres unmarked)"
  target entity: "zidovudine-resistant primary clinical HIV-1 isolates"
  qualifier operator: "="
  numeric result: 8.22
- molecule: "Cc1cn([C@H]2C[C@H](N=[N+]=[N-])[C@@H](CO)O2)c(=O)[nH]c1=O"
  target entity: "zidovudine-resistant primary clinical HIV-1 isolates"
  qualifier operator: "<"
  numeric result: 5.49

###

# Tested on: HIV-1 A17-variant (Y181C+K103N mutant, NNRTI-resistant)
# experiment description: p24 antigen assay, A17-variant strain in PBMC
# Type: cell-based
# experimental context: PBMNC, p24; read-out: IC50 A17V
pIC50: −log10 of the molar value.

- molecule: "COC(=O)C(C)NP(=O)(OCC1C=CC(n2cc(C)c(=O)[nH]c2=O)O1)Oc1ccccc1Cl (stereo not shown) [Compound 13]"
  pIC50: 7.82

###

# Tested on: zidovudine-resistant primary clinical HIV-1 isolates
# experiment description: p24 drug susceptibility assay, NRTI-/zidovudine-resistant primary clinical HIV-1 isolates in PBMC
# Format: cell-based
# experimental context: Human immunodeficiency virus 1, PBMC, isolate Y270-7 (M41W, Y188L, T215N); PBMC
# Procedure: Viruses. […] Antiviral susceptibility assays. […] Percent inhibition of viral replication was calculated by comparing the p24 values from the test substance-treated infected cells with p24 values from untreated infected cells (i.e., virus controls). The IC50 values were determined using the Statview statistics program (SAS Institute, Inc.). […] A microculture tetrazolium assay (MTA) was performed to quantitate cellular proliferation (Uckun, 1998, Antimicrobial Agents and Chemotherapy, 42:383-388). […]
Quick reference for IC50 among some compounds

- compound: "Cc1cn([C@H]2C[C@H](N=[N+]=[N-])[C@@H](CO)O2)c(=O)[nH]c1=O"
  target entity: "zidovudine-resistant primary clinical HIV-1 isolates"
  IC50: "1500 nM"
- compound: "COC(=O)C(C)NP(=O)(OC[C@@H]1C=C[C@H](n2cc(C)c(=O)[nH]c2=O)O1)Oc1ccc(Br)cc1 (some centres unmarked)"
  target entity: "zidovudine-resistant primary clinical HIV-1 isolates"
  IC50: "9 nM"
